Assay read-out pIC50 on BRD3 (Homo sapiens (Human)); records merged from the literature.
// pIC50: -log10(molar conc.)

Examples with answers:
Entry COc1ncc(-c2cc3c(n2C)C(c2ccc(Cl)cc2)N(c2cc(C)c(=O)n(C)c2)C3=O)c(OC)n1 (stereo not shown) , tested on BRD3 (Homo sapiens (Human)), has a reported pIC50 of 7.41

Per the reported BRD3 (Homo sapiens (Human)) data, CCc1nn(CCOCC(F)(F)F)c2c1C(c1ccc(Cl)cc1)N(c1cc(OC)c3nnc(C)n3c1)C2=O (stereo not shown) has pIC50 of 6.55

Log: BRD3 (Homo sapiens (Human)), compound Cc1cc2c(n1C)[C@@H](c1ccc(Cl)cc1)N(c1cc(Cl)c(=O)n(C)c1)C2=O , pIC50 = 7.27

Short answer on BRD3 (Homo sapiens (Human)) for Cc1nn(C)c2c1C(c1ccc(Cl)cc1)N(c1cc(Cl)c(=O)n(C)c1)C2=O (stereo not shown) , pIC50: 6.54

Assay BRD3 (Homo sapiens (Human)), sample Cc1cc(N2C(=O)c3nc(C4=CCN(C)CC4)n(C(C)C)c3C2c2ccc(Cl)cc2)cc2c1nnn2C (stereo not shown) , pIC50 read: 7.51

Fill in: BRD3 (Homo sapiens (Human)) pIC50 for COc1ccc(-c2nc3c(n2C)C(c2ccc(Cl)cc2)N(c2cc(OC)c4nnc(C)n4c2)C3=O)cn1 (stereo not shown) = 7.04

The record that follows has no pIC50 shown yet.
Lab entry: BRD3 (Homo sapiens (Human)) assay, compound CC(C)n1c(-c2ccccn2)nc2c1C(c1ccc(Cl)cc1)N(c1ccc(=O)n(C)c1)C2=O (stereo not shown) , pIC50 = 6.21

====

Recorded pIC50 for compounds tested on BRD3 (Homo sapiens (Human)), drawn from a number of studies.
Scale note: pIC50 = -log10(concentration in M).

These solved cases illustrate the format of a correct answer.
// pIC50 lookup, compound = Cc1cc(N2C(=O)c3nc(C4=CCOCC4)n(C(C)C)c3C2c2ccc(Cl)cc2)cn2c(C(F)F)nnc12 (centres unmarked) , result: 7.36

The value of pIC50 measured for the compound Cc1nn(C2CC2)c2c1C(c1ccc(Cl)cc1)N(c1cc(C)c3nnn(C)c3c1)C2=O (centres unmarked) turned out to be 7.80

Briefly, pIC50 measured for CC(=O)N1CC(n2cc(C3CC3)c3c2C(c2ccc(Cl)cc2)N(c2cc(C)c4nnn(C)c4n2)C3=O)C1 (centres unmarked) : 7.92

Value of measured pIC50 for the entry Cc1ccc(C2c3c(ccn3C)C(=O)N2c2cc(C)c(=O)n(C)c2)cc1 (centres unmarked) : 7.09

// pIC50 value for CCn1nc(C)c2c1C(=O)N(c1cc(C)c(=O)n(C)c1)C2c1ccc(Cl)cc1F (centres unmarked) : 7.89

---
Lab note: Cc1ccc(C2c3c(ccn3C)C(=O)N2c2cc(Cl)c(=O)n(C)c2)cc1 (centres unmarked) gave pIC50 of 7.12

Sure, the documented pIC50 for CCOC(=O)N1CC(n2cc(C)c3c2C(c2ccc(Cl)cc2)N(c2cc(C)c4nnc(C)n4c2)C3=O)C1 (centres unmarked) is 7.47

====

Record: compiled IC50 on BRD3 (Homo sapiens (Human), UniProt Q15059) from multiple reports.
Criterion: IC50 strictly under 50 nM. Met: yes. Not met: no.

Field: example entries. Status: answers known.
Input line: Problem: For the compound COc1ccc(-c2nc3c([nH]2)C(c2ccc(Cl)cc2)N(c2cc(C)c4nnc(C(F)F)n4c2)C3=O)cn1 (stereo not drawn) , is IC50 under 50 nM?
Output line: yes

Input line: For Cc1cc(N2C(=O)c3cc(-c4ccc(=O)n(C)c4)n(C)c3C2c2ccc(Cl)cc2)cn(C)c1=O (stereo not drawn) , is the recorded IC50 below the cut-off of 50 nM?
Output line: yes

Input line: Check if IC50 falls below 50 nM for Cc1cc(N2C(=O)c3nc(C4=CCOCC4)[nH]c3[C@H]2c2ccc(Cl)cc2)cn2c(C)nnc12 .
Output line: no

Input line: Lab log: compare recorded IC50 with 50 nM; is it strictly lower for COCC(=O)N1CC(n2cc(C)c3c2C(c2ccc(Cl)cc2)N(c2cc(C)c4nnc(C)n4c2)C3=O)C1 (stereo not drawn) ?
Output line: no

Input line: Say whether its IC50 is strictly beneath 50 nM. Entry: Cn1cc(N2C(=O)c3n[nH]cc3C2c2ccc(Cl)cc2)cc(Cl)c1=O (stereo not drawn)
Output line: no

Input line: Hello, I'm reviewing records and need to know if IC50 of CCOC(=O)n1c(-c2cccnc2OC)c(C)c2c1C(c1ccc(Cl)cc1)N(c1cc(C)c3nnc(C)n3c1)C2=O (stereo not drawn) is below 50 nM. Could you check?
Output line: yes

Input line: Item COc1cc(N2C(=O)c3nc(C4=CCOCC4)n(C(C)C)c3C2c2ccc(Cl)cc2)cn2c(C)nnc12 (stereo not drawn) : IC50 beneath 50 nM, strictly?
Output line: no

Input line: Regarding Cc1cc(N2C(=O)c3nn(C4CN(C)C4)c(C)c3C2c2ccc(Cl)cc2)cn(C)c1=O (stereo not drawn) , kindly confirm whether its IC50 is beneath 50 nM.
Output line: no

More entries:
Input line: Please determine if Cc1cc(N2C(=O)c3cc(-c4ccn(C)c(=O)c4)n(C)c3C2c2ccc(Cl)cc2)cn(C)c1=O (stereo not drawn) is below 50 nM in terms of IC50.
Output line: yes

Input line: Lab note: IC50 threshold 50 nM. Does this compound come in strictly under it? COc1ncccc1-n1nc(C)c2c1C(=O)N(c1cc(C)c(=O)n(C)c1)[C@@H]2c1ccc(Cl)cc1
Output line: yes

Input line: Please determine if Cc1nn(C2CCC2)c2c1C(c1ccc(Cl)cc1)N(c1cc(C)c(=O)n(C)c1)C2=O (stereo not drawn) is below 50 nM in terms of IC50.
Output line: yes

Input line: # TODO verify IC50 < 50 nM strictly for this compound: Cc1cc(N2C(=O)c3cc(-c4ccccn4)n(C)c3C2c2ccc(Cl)cc2)cn(C)c1=O (stereo not drawn)
Output line: no

Input line: Consider CC(=O)N1CC(c2cn(C)c3c2C(=O)N(c2cc(C)c4nnc(C)n4c2)C3c2ccc(Cl)cc2)C1 (stereo not drawn) . Does its IC50 lie strictly below 50 nM?
Output line: yes

Input line: Is IC50 of Cc1nn(-c2cccnc2F)c2c1C(=O)N(c1cc(C)c(=O)n(C)c1)C2c1ccc(Cl)cc1 (stereo not drawn) strictly below 50 nM?
Output line: no

Input line: Please state whether IC50 is below 50 nM for Cc1cc(N2C(=O)c3nc(C)n(C4COC4)c3C2c2ccc(Cl)cc2)cc2c1nnn2C (stereo not drawn)
Output line: yes
